Target: T1, HTRA3, P83110
T1 sequence (P83110 354-453, limits assumed, looked up): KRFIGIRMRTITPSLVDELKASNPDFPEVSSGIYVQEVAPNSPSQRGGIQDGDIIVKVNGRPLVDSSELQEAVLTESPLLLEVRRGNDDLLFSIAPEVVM
Test: holdup assay
Design: key: below the threshold = too weak to quantify, mostly under pKd 3.1 to 4
Conditions: plain residues with an end cap or a label only (N-terminal biotin on a linker: ahx)
Measured attribute: pKd

INSERT INTO measurements (binder, reported_result) VALUES
  ('GYDWGPATDL [TJP3, O95049]', 'below the threshold'),
  ('LSDPSVSTVV [GRIN1, Q05586;Q05586-2]', 'below the threshold'),
  ('RAVEEEESRF [PSCDBP, O60759]', 'below the threshold'),
  ('RRRKRKRTYL [HPV49-L2, P36762]', 'below the threshold'),
  ('TVICWPGSLV [LNX2, Q8N448]', 3.85),
  ('HNAFLSVTTV [PDZRN4, Q6ZMN7]', 'below the threshold'),
  ('SDSSGQEYSL [KCTD3, Q9Y597]', 'below the threshold'),
  ('NRKREIFSNF [NHERF2, Q15599]', 'below the threshold'),
  ('ESLLLGPSNF [SHROOM4, Q9ULL8]', 'below the threshold');

Now look at this one.
Exercise: What does the data say about its pKd? Entry: PSASCAVTAA [PDLIM4, P50479;P50479-2]
Key: below the threshold
